Tested on: PC3 prostate cancer cells
ASSAY COMMENT: Anti-proliferative assay (cell-titre luminescent), PC3
Assay type: cell-based
MEASUREMENT CONTEXT: PC3, 72 hours, luminescence
Please note: IC50 exactly at 9 µM is no (0). Only values below 9 µM get yes (1).

1. CCN(CC)CCCn1c(C)c(C(=O)N2CCN(CCc3cccc(OC)c3)CC2)c2cc(OC)ccc21 ... yes (1)
2. CCN(CC)CCCn1c(C)c(C(=O)N2CCN(CCc3ccccc3)CC2)c2cc(OC)ccc21 ... no (0)
3. CCOc1ccc2c(c1)c(C(=O)N1CCN(CCc3ccc(F)cc3)CC1)c(C)n2CCCN1CCN(C)CC1 ... yes (1)
4. COc1ccc2c(c1)c(/C=C/C(=O)N1CCN(CCc3cccc(F)c3)CC1)c(C)n2CCCN(C)C ... yes (1)
5. COc1cccc(CCN2CCN(C(=O)c3c(C)n(CCCN4CCN(C)CC4)c4ccc(OC)cc34)CC2)c1 ... no (0)

Problem: For the compound COc1ccc2c(c1)c(C(=O)N1CCN(CCc3ccccc3)CC1)c(C)n2CCCN(C)C , is IC50 under 9 µM?
yes (1)

Decide: IC50 of Cc1c(/C=C/C(=O)N2CCN(CCc3ccccc3)CC2)c2ccccc2n1CCCN(C)C strictly below 9 µM?
no (0)
